- Assay Method Text: Rodent pharmacokinetic study
- Type: in vivo, Male wistar rats
- Stated Conditions: plasma; Wistar/Male rat, 3 mg/kg oral (gavage)
Let's look at some compounds and their measured Tmax.
Measurement Kind: Tmax (min)

# Compound, Measurement Kind, Unit Abbrev, Observed Value
records = [
    ("Nc1c(Cl)cc(C(=O)NCC2(F)CCN(CC3(O)CCOCC3)CC2)c2ncccc12.O=C(O)C(O)C(O)C(=O)O", "Tmax", "min", 15),
    ("Nc1c(Cl)cc(C(=O)NCC2C3CN(CC4CCOCC4)CC23)c2ncccc12.O=C(O)C(O)C(O)C(=O)O (stereo not drawn)", "Tmax", "min", 25.2),
    ("CC(C)(O)CN1CCC(F)(CNC(=O)c2cc(F)c(N)c3cccnc23)CC1.O=C(O)C(O)C(O)C(=O)O", "Tmax", "min", 19.8),
    ("Nc1c(Cl)cc(C(=O)NCC2CCN(CC3CCOCC3)CC2)c2ncccc12.O=C(O)C(O)C(O)C(=O)O", "Tmax", "min", 30),
    ("CC(C)(O)CN1CCC(F)(CNC(=O)c2cc(Cl)c(N)c3cccnc23)CC1.O=C(O)C(O)C(O)C(=O)O", "Tmax", "min", 15),
    ("Nc1c(Cl)cc(C(=O)NCC2CCN(CC3CCOCC3)CC2)c2ncccc12.O=C(O)/C=C/C(=O)O", "Tmax", "min", 25.2),
]
